All values here come from paper PMC12635197.

Molecular target: T1, TRFH domain of TRF1 (TRF1_(TRFH)), residues 47–268 (human, UniProt P54274-1 47-268)
T1 construct: cDNA codon-optimised for E. coli; also called TRF homology (TRFH) domain; source: E. coli BL21-CodonPlus(DE3)-RIL, purified (HisTrap, TEV cleavage, second HisTrap, Superdex 200 SEC); not shown: His6, N-terminal, cleaved; MBP, N-terminal, cleaved
T1 sequence (looked up): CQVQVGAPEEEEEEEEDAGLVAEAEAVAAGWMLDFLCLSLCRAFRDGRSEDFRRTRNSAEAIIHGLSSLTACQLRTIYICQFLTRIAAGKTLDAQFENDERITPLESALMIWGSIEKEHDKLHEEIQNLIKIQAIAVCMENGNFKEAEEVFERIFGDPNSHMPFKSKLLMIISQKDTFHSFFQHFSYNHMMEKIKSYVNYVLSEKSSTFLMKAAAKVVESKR
Assay: fluorescence polarisation; direct titration: TRF1_(TRFH) 20 to 0.02 µM (11 points) against 25 nM TIN2-FAM; 25 mM HEPES-NaOH pH 7.5, 100 mM NaCl, 1 mM TCEP, 0.05% w/v CHAPS; 1 h at room temperature
Conditions: both partners purified
pKd: −log10 of the molar value. Where no end group is shown, it is not given here. FAM = 5(6)-carboxyfluorescein

- binder: "{FAM}-RHFNLAPLGRRRVQSQWASTR [TIN2TBM peptide labelled with an N-terminal 5(6)-carboxyfluorescein (TIN2-FAM)]"
  pKd: 6.40
